Origin of values: patent US20260034252A1

assaySystem: FAP (Homo sapiens (Human), UniProt Q12884)
Sequence (Q12884 whole entry): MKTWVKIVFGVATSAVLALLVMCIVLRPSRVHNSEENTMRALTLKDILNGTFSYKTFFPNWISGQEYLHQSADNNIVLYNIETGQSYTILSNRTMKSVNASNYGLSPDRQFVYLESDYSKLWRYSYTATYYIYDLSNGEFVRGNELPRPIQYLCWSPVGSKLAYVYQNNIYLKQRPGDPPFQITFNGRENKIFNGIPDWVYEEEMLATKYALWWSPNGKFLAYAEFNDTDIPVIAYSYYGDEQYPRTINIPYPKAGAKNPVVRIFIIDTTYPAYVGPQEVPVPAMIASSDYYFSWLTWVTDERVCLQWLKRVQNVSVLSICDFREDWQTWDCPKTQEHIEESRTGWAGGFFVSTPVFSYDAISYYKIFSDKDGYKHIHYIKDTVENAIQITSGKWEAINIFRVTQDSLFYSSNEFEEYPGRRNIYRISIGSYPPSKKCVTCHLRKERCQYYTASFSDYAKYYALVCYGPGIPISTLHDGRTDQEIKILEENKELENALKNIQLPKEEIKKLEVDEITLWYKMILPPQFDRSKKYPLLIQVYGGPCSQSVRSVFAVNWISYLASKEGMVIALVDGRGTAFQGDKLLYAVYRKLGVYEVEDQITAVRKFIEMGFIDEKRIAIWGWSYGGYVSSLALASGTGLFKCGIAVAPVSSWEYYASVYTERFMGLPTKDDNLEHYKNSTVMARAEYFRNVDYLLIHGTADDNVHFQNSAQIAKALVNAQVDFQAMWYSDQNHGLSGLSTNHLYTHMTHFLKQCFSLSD
measurementLabel: IC50

CC(=O)NCCCC[C@H](NC(=O)[C@H](CCCCNC(=O)CN1CCN(CC(=O)O)CCN(CC(=O)O)CCN(CC(=O)O)CC1)NC(=O)CCOCCOCCOCCNC(=O)COc1ccc2c(C(=O)NCC(=O)N3CCC[C@H]3C#N)ccnc2c1)C(=O)O [RTX-1353S]: 0.1 to 0.5 nM

Consider the additional compound presented here.
-- ask Report measured IC50 on FAP (Homo sapiens (Human), UniProt Q12884); entry: CC(C)Cc1ccc(CCCC(=O)NCCCC[C@H](NC(=O)[C@H](CCCCNC(=O)CN2CCN(CC(=O)O)CCN(CC(=O)O)CCN(CC(=O)O)CC2)NC(=O)CCOCCOCCOCCNC(=O)COc2ccc3c(C(=O)NCC(=O)N4CCC[C@H]4B(O)O)ccnc3c2)C(=O)O)cc1 [RTX-1356R]
-- reply 0.1 to 0.5 nM
